Answer each item with its documented Vd.
procedure.summary: Pharmacokinetic evaluation in C57 mice
Assay type: in vivo
measurement.parameters: both sexes, mouse, plasma, iv, 1.0 mg/kg, read-out: Apparent distribution volume Vss
Procedure: C57 mice were used as test animals. After intragastric (i.g.)/intravenous (i.v.) administration of the compounds of the present disclosure to C57 mice, the plasma concentrations at different time points were measured by the LC/MS/MS method. The pharmacokinetic behavior of the compounds of the present disclosure in C57 mice was studied and their pharmacokinetic profiles were evaluated. Compound 2 and compound 3. […]
I'd appreciate it if you wrote the number followed by its unit.

# molecule, Vd
data = [
    ("COc1cccc(OC)c1S(=O)(=O)Nc1noc2cc(Cn3cccn3)c3c(c12)OCCC3 [Compound 2]", "0.093 L/kg"),
]

Proceed to the following item.
Please report Vd for the following molecule: COc1ccccc1S(=O)(=O)Nc1noc2cc(Cn3cccn3)c3c(c12)OCCC3 [Compound 3]
0.102 L/kg
